- test.name: chemical genetic growth profiling, strain panel (AID 1159580);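 also: tested at 20 µM; growth read once vehicle control cultures reached saturation at 30 °C; 1 = growth at the plate median or of vehicle wells; lower values mean less growth of the strain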
- test.parameters: S. cerevisiae deletion strains, growth OD, locus YMR223W, strain ubp8, hits give low values
The campaign covered roughly 5,500 compounds. About 2,000 (36%) were called active. Roughly 18% stayed inconclusive and do not appear here. The list shows a part of the results.
normalized growth strictly less than 1 = 1.0. Otherwise 0.0.

>  <compound>
O=[N+]([O-])O[C@H]1CO[C@H]2[C@@H]1OC[C@H]2O[N+](=O)[O-]

>  <category.label>
0.0

$$$$
>  <compound>
COc1ccc(C2CC(=O)c3ccc(OC)cc3O2)cc1 (configuration not stated)

>  <category.label>
1.0

$$$$
>  <compound>
CC(=O)O[C@]1(C(C)=O)CCC2C3C[C@H](C)C4=CC(=O)CC[C@]4(C)C3CC[C@@]21C (some centres not stated)

>  <category.label>
1.0

$$$$
>  <compound>
C[CH2][Hg][S]c1ccccc1C(=O)O

>  <category.label>
1.0

$$$$
>  <compound>
COc1ccc(C(=O)c2ccccc2O)c(O)c1

>  <category.label>
1.0

$$$$
>  <compound>
CNC1(C)C2CCC(C2)C1(C)C (configuration not stated)

>  <category.label>
0.0

$$$$
>  <compound>
C[N+](C)(C)CC(=O)[O-]

>  <category.label>
0.0

$$$$

---

- test.name: chemical genetic growth profiling, strain panel (AID 1159580)
- test.parameters: S. cerevisiae deletion strains, growth OD, locus YDR226W, strain ADK1, hits give low values
The campaign covered roughly 5,500 compounds. About 2,000 (36%) were called active. Not shown: some 18% with an inconclusive outcome. The list shows a part of the results.
normalized growth: recorded values
endpoint.name: normalized growth

>  <record.smiles>
O=C(C=C(O)c1ccc(Br)cc1)C(=O)Nc1ccccc1

>  <assay.value>
0.869 (active)

$$$$
>  <record.smiles>
O=C(NCc1ccco1)c1ccc(Oc2cc(Cl)cc(Cl)c2)o1

>  <assay.value>
0.959 (inactive)

$$$$
>  <record.smiles>
C/C(=N/NC(N)=S)c1ccc(Oc2c(Cl)cncc2Cl)cc1

>  <assay.value>
0.988 (inactive)

$$$$
>  <record.smiles>
C/C(=N/NC(N)=S)c1ccccn1

>  <assay.value>
0.971 (inactive)

$$$$
>  <record.smiles>
Cn1cncc1S(=O)(=O)/C(C#N)=C/c1ccccc1Sc1ccc(Cl)cc1

>  <assay.value>
0.962 (inactive)

$$$$

---

- test.name: chemical genetic growth profiling, strain panel (AID 1159580);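 also: tested at 20 µM; growth read once vehicle control cultures reached saturation at 30 °C; 1 = growth at the plate median or of vehicle wells; lower values mean less growth of the strain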
- test.parameters: S. cerevisiae deletion strains, growth OD, locus YMR223W, strain ubp8, hits give low values
Out of some 5,500 compounds screened, about 2,000 (36%) were called active. About 18% were inconclusive and are not listed. Some of the results follow.

>  <record.smiles>
COc1ccc(-c2c(O)c3cc4c(c(CC=C(C)C)c3oc2=O)OC(C)(C)CC4)cc1

>  <normalized growth>
1.01

$$$$
>  <record.smiles>
NC(N)=NOCC[C@H](N)C(=O)O

>  <normalized growth>
0.976

$$$$
>  <record.smiles>
COC(=O)COc1cc(Cl)c(Cl)cc1Cl

>  <normalized growth>
0.978

$$$$
>  <record.smiles>
O=C(O)COc1cc(Cl)c(Cl)cc1Cl

>  <normalized growth>
1.02

$$$$
>  <record.smiles>
COC(=O)COc1ccc(Cl)cc1Cl

>  <normalized growth>
1.02

$$$$

---

- test.name: chemical genetic growth profiling, strain panel (AID 1159580);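 also: tested at 20 µM; growth read once vehicle control cultures reached saturation at 30 °C; 1 = growth at the plate median or of vehicle wells; lower values mean less growth of the strain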
- test.parameters: S. cerevisiae deletion strains, growth OD, locus YLR418C, strain cdc73, hits give low values
In all, about 5,500 compounds went through this assay and about 2,000 (36%) were called active. Roughly 18% stayed inconclusive and do not appear here. This is one part of the list.

>  <compound>
CC1(C)S[C@@H]2[C@H](NC(=O)[C@H](NC(=O)N3CCNC3=O)c3ccccc3)C(=O)N2C1C(=O)O (stereo not given in full)

>  <normalized growth>
0.995

$$$$
>  <compound>
CC1(C)C2CC[C@]3(C)C(C(=O)C=C4[C@H]5C[C@@](C)(C(=O)O)CC[C@]5(C)CC[C@]43C)[C@@]2(C)CC[C@@H]1O (stereo not given in full)

>  <normalized growth>
1.03

$$$$
>  <compound>
CC1(C)C2CC[C@]3(C)C(C(=O)C=C4[C@@H]5C[C@@](C)(C(=O)O)CC[C@]5(C)CC[C@]43C)[C@@]2(C)CC[C@@H]1OC(=O)CCC(=O)O (stereo not given in full)

>  <normalized growth>
0.968

$$$$
>  <compound>
CO[C@H]1C[C@H](O[C@H]2[C@H](C)[C@@H](OC3O[C@H](C)C[C@H](N(C)C)[C@H]3O)[C@@H](C)C[C@]3(CO3)C(=O)[C@H](C)[C@@H](O)[C@@H](C)[C@@H](C)OC(=O)[C@@H]2C)O[C@@H](C)[C@@H]1O (stereo not given in full)

>  <normalized growth>
1.03

$$$$
>  <compound>
COc1cc(O)c2c(=O)cc(C)oc2c1CC=C(C)C

>  <normalized growth>
0.628

$$$$
>  <compound>
COc1ccc(C(=O)c2ccccc2O)c(O)c1

>  <normalized growth>
0.821

$$$$
>  <compound>
O=c1ccc2ccccc2o1

>  <normalized growth>
1.03

$$$$
>  <compound>
Oc1c(Cl)c(Cl)c(Cl)c(Cl)c1Cl

>  <normalized growth>
0.41

$$$$
>  <compound>
COc1ccc(C[C@H]2NC[C@H](O)[C@H]2OC(C)=O)cc1

>  <normalized growth>
0.28

$$$$
>  <compound>
O=c1ccc2cc(O)c(O)cc2o1

>  <normalized growth>
0.953

$$$$

---

- test.name: chemical genetic growth profiling, strain panel (AID 1159580);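 also: tested at 20 µM; growth read once vehicle control cultures reached saturation at 30 °C; 1 = growth at the plate median or of vehicle wells; lower values mean less growth of the strain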
- test.parameters: S. cerevisiae deletion strains, growth OD, locus YDR334W, strain swr1
Hit rate of the full screen: of about 5,500 compounds, about 2,000 (36%) were called active. Inconclusive results (about 18%) are left out. Rule as the data show it: active = normalized growth mostly below about 0.91 (no sharp cut-off); inconclusive = no clear call, values can overlap the other calls; inactive = mostly above about 0.92. The list shows a part of the results.
Possible outcomes: active, inactive

>  <compound>
O=C(O)c1ccccc1OP(=O)(O)O

>  <category.label>
inactive

$$$$
>  <compound>
OC(CCN1CCCCC1)(c1ccccc1)c1ccccc1

>  <category.label>
inactive

$$$$
>  <compound>
NC(N)=NOCC[C@H](N)C(=O)O

>  <category.label>
inactive

$$$$
>  <compound>
OCC(O)Cc1ccc2c(c1)OCO2 (centres undefined)

>  <category.label>
inactive

$$$$
>  <compound>
CC(C)=CCc1c(O)cc2oc(C)cc(=O)c2c1O

>  <category.label>
inactive

$$$$
>  <compound>
CC(=O)CC(=O)CCC(=O)O

>  <category.label>
inactive

$$$$
>  <compound>
O=C(Cc1ccccc1)NO

>  <category.label>
inactive

$$$$
>  <compound>
O=C(/C=C/c1ccccc1)O[C@H]1C[C@@H](O)[C@]2(O)C=CO[C@@H](O[C@@H]3O[C@H](CO)[C@@H](O)[C@H](O)[C@H]3O)[C@H]12

>  <category.label>
inactive

$$$$
>  <compound>
CC(C)(C)CC(C)(C)c1ccc(OCCOCC[N+](C)(C)Cc2ccccc2)cc1

>  <category.label>
active

$$$$
>  <compound>
CC(=O)[C@H]1CCC2C3C[C@H](C)C4=CC(=O)CC[C@]4(C)C3[C@@H](O)C[C@@]21C (some centres undefined)

>  <category.label>
inactive

$$$$
>  <compound>
CC1(C)S[C@@H]2[C@H](NC(=O)[C@H](NC(=O)N3CCNC3=O)c3ccccc3)C(=O)N2C1C(=O)O (some centres undefined)

>  <category.label>
inactive

$$$$
>  <compound>
CC(=O)O[C@]1(C(C)=O)CCC2C3C=C(C)C4=CC(=O)CCC4(C)C3CCC21C (some centres undefined)

>  <category.label>
inactive

$$$$
>  <compound>
CCSC(=N)N

>  <category.label>
inactive

$$$$
>  <compound>
CO[C@H]1C[C@H](O[C@H]2[C@H](C)[C@@H](OC3O[C@H](C)C[C@H](N(C)C)[C@H]3O)[C@@H](C)C[C@]3(CO3)C(=O)[C@H](C)[C@@H](O)[C@@H](C)[C@@H](C)OC(=O)[C@@H]2C)O[C@@H](C)[C@@H]1O (some centres undefined)

>  <category.label>
inactive

$$$$
>  <compound>
COc1cc2c(cc1OC)C(=O)C(CC1CCN(Cc3ccccc3)CC1)C2 (centres undefined)

>  <category.label>
inactive

$$$$
>  <compound>
CCCCCC(C)N (centres undefined)

>  <category.label>
inactive

$$$$
>  <compound>
O=C(O)C1CC([C@@H]2CCCCN2)CN2CCCCC12 (some centres undefined)

>  <category.label>
inactive

$$$$
>  <compound>
C=CCc1ccc2c(c1)OCO2

>  <category.label>
inactive

$$$$
>  <compound>
C[CH2][Hg][S]c1ccccc1C(=O)O

>  <category.label>
active

$$$$
>  <compound>
CCc1ccc(CCOc2ccc(CC3SC(=O)NC3=O)cc2)nc1 (centres undefined)

>  <category.label>
inactive

$$$$
>  <compound>
COc1cc(O)c(C(=O)c2ccccc2)cc1O

>  <category.label>
inactive

$$$$
>  <compound>
COC1C(O)C(O)C(O)[C@@H](O)C1O (some centres undefined)

>  <category.label>
inactive

$$$$
>  <compound>
CCN(CC)C(=S)SSC(=S)N(CC)CC

>  <category.label>
active

$$$$
>  <compound>
CC(=O)O[C@]1(C(C)=O)CCC2C3C[C@H](C)C4=CC(=O)CC[C@]4(C)C3CC[C@@]21C (some centres undefined)

>  <category.label>
inactive

$$$$
